Data origin: paper PMC7447632

The reader will find reported % Blockade 5 µM values listed item by item below.
# measured.target: rat TRPM8 channel (Rattus norvegicus, UniProt Q8R455)
# Construct: expressed in transfected cells; host or cells: HEK293 (stably transfected)
# Sequence (Q8R455 whole entry): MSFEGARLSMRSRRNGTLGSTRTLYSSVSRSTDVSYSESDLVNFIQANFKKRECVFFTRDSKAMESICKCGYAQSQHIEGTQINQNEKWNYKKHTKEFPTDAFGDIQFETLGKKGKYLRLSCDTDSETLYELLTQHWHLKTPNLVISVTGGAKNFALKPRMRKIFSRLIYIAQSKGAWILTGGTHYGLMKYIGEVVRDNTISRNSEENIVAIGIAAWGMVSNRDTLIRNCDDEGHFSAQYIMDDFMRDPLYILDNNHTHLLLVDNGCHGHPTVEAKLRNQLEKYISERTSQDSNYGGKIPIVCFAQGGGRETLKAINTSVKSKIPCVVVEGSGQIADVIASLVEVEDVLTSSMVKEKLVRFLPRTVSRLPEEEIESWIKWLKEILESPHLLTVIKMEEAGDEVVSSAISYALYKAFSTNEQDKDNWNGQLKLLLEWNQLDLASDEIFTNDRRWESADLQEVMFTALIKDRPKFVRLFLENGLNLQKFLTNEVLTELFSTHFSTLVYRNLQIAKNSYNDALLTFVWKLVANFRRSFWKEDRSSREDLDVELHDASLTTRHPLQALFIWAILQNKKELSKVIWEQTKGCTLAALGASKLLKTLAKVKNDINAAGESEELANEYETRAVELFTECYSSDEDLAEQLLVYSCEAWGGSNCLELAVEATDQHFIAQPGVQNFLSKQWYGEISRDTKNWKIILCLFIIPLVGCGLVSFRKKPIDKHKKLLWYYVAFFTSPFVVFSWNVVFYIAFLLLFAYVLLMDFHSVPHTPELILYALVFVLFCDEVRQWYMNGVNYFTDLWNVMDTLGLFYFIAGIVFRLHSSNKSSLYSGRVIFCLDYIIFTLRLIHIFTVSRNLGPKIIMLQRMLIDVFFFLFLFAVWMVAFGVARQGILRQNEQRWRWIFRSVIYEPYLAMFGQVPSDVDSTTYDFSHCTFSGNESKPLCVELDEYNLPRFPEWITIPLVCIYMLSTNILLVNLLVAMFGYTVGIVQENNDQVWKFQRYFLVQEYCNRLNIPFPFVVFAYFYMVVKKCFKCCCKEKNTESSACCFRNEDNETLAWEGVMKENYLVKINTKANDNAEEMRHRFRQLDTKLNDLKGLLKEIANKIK
# procedure.summary: Ca2+ microfluorometry, menthol-induced Ca2+ influx in HEK293 cells expressing rat TRPM8
# Assay type: cell-based
# particulars: 5 µM compound; 100 µM menthol; HEK-rTRPM8
Unit % implied. Number only.

Below: 2 compounds and their reported % Blockade 5 µM.
-- ask Item: C[C@@H]1C(=O)N(C[C@H](Cc2ccccc2)NC(=O)OCc2ccccc2)[C@]1(Cc1ccccc1)C(=O)OCc1ccccc1 [Compound 24a] Test system: rat TRPM8 channel (Rattus norvegicus, UniProt Q8R455) Read-out: % Blockade 5 µM Value: ?
-- reply 65.4

-- ask Item: C[C@H]1C(=O)N(C(Cc2ccccc2)C(=O)OCc2ccccc2)C[C@H](Cc2ccccc2)N1C(=O)OCc1ccccc1 (stereo partly shown) [Compound 26ab] Test system: rat TRPM8 channel (Rattus norvegicus, UniProt Q8R455) Read-out: % Blockade 5 µM Value: ?
-- reply 93.5

// switching to the query compound
-- ask Item: O=C(OCc1ccccc1)C(Cc1ccccc1)N1C[C@H](Cc2ccccc2)N(C(=O)OCc2ccccc2)CC1=O (stereo partly shown) [Compound 21ab] Test system: rat TRPM8 channel (Rattus norvegicus, UniProt Q8R455) Read-out: % Blockade 5 µM Value: ?
-- reply 70.0

* * *

# Tested on: A549 (lung carcinoma, NSCLC)
# procedure.summary: SRB cytotoxicity assay, A549
# Format: cell-based
# particulars: Homo sapiens, A549; 72 h, SRB; unit inferred; read-out: LC50 A549
measured.quantity: CC50

Below: 4 compounds and their reported CC50.
-- ask Fill in: CC50 of O=C(OCc1ccccc1)C(Cc1ccccc1)N1C[C@H](Cc2ccccc2)N(C(=O)OCc2ccccc2)CC1=O (some centres unmarked) [Compound 13ab] is ___
-- reply > 17.8 µM

-- ask Fill in: CC50 of C[C@@H]1C(=O)N(C[C@H](Cc2ccccc2)NC(=O)OCc2ccccc2)[C@]1(Cc1ccccc1)C(=O)OCc1ccccc1 [Compound 24a] is ___
-- reply > 17.3 µM

-- ask Fill in: CC50 of C[C@@H]1C(=O)N(C(Cc2ccccc2)C(=O)OCc2ccccc2)C[C@@H](Cc2ccccc2)N1C(=O)OCc1ccccc1 (some centres unmarked) [Compound 30ab] is ___
-- reply > 17.3 µM

-- ask Fill in: CC50 of C[C@@H]1C(=O)N(C[C@@H](Cc2ccccc2)NC(=O)OCc2ccccc2)[C@]1(Cc1ccccc1)C(=O)OCc1ccccc1 [Compound 29a] is ___
-- reply > 17.3 µM

Others:
-- ask Fill in: CC50 of O=C(OCc1ccccc1)C(Cc1ccccc1)N1C[C@@H](Cc2ccccc2)N(C(=O)OCc2ccccc2)CC1=O (some centres unmarked) [Compound 15ab] is ___
-- reply > 17.8 µM

* * *

The reader will find reported IC50 values listed item by item below.
# measured.target: UniProt:Q8R455
# procedure.summary: Ca2+ microfluorometry, menthol-induced Ca2+ influx in HEK293 cells expressing rat TRPM8
# particulars: Ca2+ microfluorometry, 100 µM menthol; HEK-rTRPM8
Unit µM implied. Number only.

Below: 3 compounds and their reported IC50.
-- ask Item: CC(C(=O)OCc1ccccc1)N1C[C@@H](Cc2ccccc2)N(C(=O)OCc2ccccc2)[C@H](C)C1=O (stereo partly shown) [Compound 40ab] Test system: UniProt:Q8R455 Read-out: IC50 Value: ?
-- reply 0.8

-- ask Item: C[C@H]1C(=O)N(C(Cc2ccccc2)C(=O)OCc2ccccc2)C[C@@H](Cc2ccccc2)N1C(=O)OCc1ccccc1 (stereo partly shown) [Compound 32ab] Test system: UniProt:Q8R455 Read-out: IC50 Value: ?
-- reply 17.4

-- ask Item: C[C@@H]1C(=O)N(C[C@@H](Cc2ccccc2)NC(=O)OCc2ccccc2)[C@]1(C)C(=O)OCc1ccccc1 [Compound 39a] Test system: UniProt:Q8R455 Read-out: IC50 Value: ?
-- reply 6.2

// switching to the query compound
-- ask Item: O=C(N[C@@H](Cc1ccccc1)CN1C(=O)CC1(Cc1ccccc1)C(=O)OCc1ccccc1)OCc1ccccc1 (stereo partly shown) [Compound 12ab] Test system: UniProt:Q8R455 Read-out: IC50 Value: ?
-- reply 1.5
